assay: NCI Yeast Anticancer Drug Screen. Data for the sgs1 mgt1 strain (AID 161);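 note: 0% = growth of cultures given vehicle only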; conditions: S. cerevisiae sgs1 mgt1 strain, at 50.0 µM (retest, dose inferred, filed as 5.0), active compounds read high
About 79,000 compounds went through this panel and 15% of them were active in at least one assay; those are over-represented in the sample as a whole.
Rule: growth inhibition of 60% or more gives rule met; anything lower gives rule not met.

Example results:
COc1ccc(/C=C2\Sc3scc(-c4ccc([N+](=O)[O-])cc4)[n+]3C2=O)cc1OC | rule not met
CC1(C)CC(=N/O)/C(=N/O)C(=N\NC(N)=S)/C1 | rule met

Incoming: Form field: growth inhibition at least 60%? Entry: "CSC(=S)NN=C1CCCC1"
Outgoing: rule met

Incoming: Entry "N/C(CC(=O)NOC(=O)c1ccccc1)=N/OC(=O)c1ccccc1" : is its growth inhibition no less than 60%?
Outgoing: rule met

Incoming: Please tell me: is the molecule "COC(=O)n1c(C[P+](c2ccccc2)(c2ccccc2)c2ccccc2)cc2ccccc21" at or over 60% in terms of growth inhibition?
Outgoing: rule met

Incoming: Could you tell me if the measured growth inhibition of "CCCCCCCCCCCCCCCCOS(=O)(=O)O" reaches 60% or more?
Outgoing: rule met

---

assay: NCI Yeast Anticancer Drug Screen. Data for the rad50 strain (AID 155);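 note: 0% = growth of vehicle-only cultures of the same strain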; conditions: S. cerevisiae rad50 strain growth inhibition; at 50.0 µM (retest, dose inferred, filed as 5.0); active compounds read high
About 79,000 compounds went through this panel and 15% of them were active in at least one assay; those are over-represented in the sample as a whole.
Reported growth inhibition values follow for various compounds
Return type: number; implicit unit %.

Nc1ccc(C(=O)N/C(=C\c2ccc3c(c2)OCO3)c2nc3ccccc3s2)cc1 | 99
O=[N+]([O-])c1ccc(N=C(Cl)C(Cl)(c2ccccc2)c2ccccc2)cc1 | 97
O=S(=O)(c1cc(Cl)c(Cl)cc1Cl)N(CCCCCN(S(=O)(=O)c1cc(Cl)c(Cl)cc1Cl)S(=O)(=O)c1cc(Cl)c(Cl)cc1Cl)S(=O)(=O)c1cc(Cl)c(Cl)cc1Cl | -3
COc1ccc(C(=O)C2OC2c2ccccc2)cc1 (stereo not given) | 23

Let us examine a further case.
Incoming: What does the record list as growth inhibition for O=C(O)C1C(Br)(c2ccccc2)C1(Br)c1ccccc1 (stereo not given) ?
Outgoing: 90

---

assay: NCI Yeast Anticancer Drug Screen. Data for the mec2-1 strain (AID 157); conditions: S. cerevisiae mec2-1 strain, at 5.0 µM (retest, dose inferred, filed as 0.5)
The panel holds about 79,000 compounds, 15% with a hit somewhere; the sample as a whole holds those more often. Calls of active or inactive are those of the source. Rule as the data show it: active = growth inhibition above about 70%; inactive = the rest.
Choose the fitting class; nothing outside true (1) = active, false (0) = inactive is accepted.

Oc1c(Cl)cc(C(c2cc(Cl)c(O)c(Cl)c2)C(c2cc(Cl)c(O)c(Cl)c2)c2cc(Cl)c(O)c(Cl)c2)cc1Cl | true (1)
O=C(CCCl)Nc1ccc(CCC(=O)c2ccccc2NC(=O)CCCl)cc1 | false (0)
COC1OC(CO)C(O)C(OC(=O)c2ccc([N+](=O)[O-])cc2)C1OS(=O)(=O)c1ccc(C)cc1 (stereo not drawn) | false (0)

Incoming: Recorded test call requested for "c1ccc2c(c1)CCCc1cc3ccccc3nc1-2"
Outgoing: false (0)

Incoming: Which outcome was assigned to "COc1ccc2[nH]c3ccc4cc[n+](CCN5CCC(C6CCN(CC[n+]7ccc8ccc9[nH]c%10ccc(OC)cc%10c9c8c7)CC6)CC5)cc4c3c2c1" in this test?
Outgoing: false (0)

Incoming: How did this test come out for CCC1C(c2cccc(OC)c2O)c2cc3c(cc2OC1N1CCCC1)OCO3 (stereo not drawn) ?
Outgoing: false (0)

Incoming: Recorded test outcome, item CC1(C)/C=C/C2=Nc3cc(Br)c(Br)c(Br)c3C23CC(=O)N3/C=C(\Cl)c2nc(Br)[nH]c21 (stereo not drawn)
Outgoing: false (0)

Incoming: Which outcome was entered for the compound CC1=C(C(=O)OCCO[N+](=O)[O-])C(c2ccccc2[N+](=O)[O-])C(C(=O)OC(C)C)=C(C)N1 (stereo not drawn) in this test?
Outgoing: false (0)
